Data provenance: patent US12215118B2

Procedure summary: Accelerated stability study in Buffer A (50/50 DMSO and 10 mM glycine buffer pH 2.0)
Format: physicochemical
Stated conditions: 20-25 °C, 8.0 days
Description: With an understanding of the degradation pathways and characteristics, a solvent system was designed for the purpose of extending shelf-life of QMP compounds. […] At elevated temperature the degradation pathway described in FIG. 3C was still observed. However, at normal storage conditions (2-25° C.) the rate of decomposition of the QMP is reduced compared to 100% aqueous systems.
Readout: QMP remaining (%)
# unit: % | format: bare number

[
  {
    "Compound": "CN(C)c1ccc(N=Nc2ccc(S(=O)(=O)NCCOCCOCCOCCOCCOCCOCCOCCOCCC(=O)NCCCCCCNC(=O)C(F)c3ccccc3OP(=O)(O)O)cc2)cc1 (centres unmarked)",
    "Readout": "QMP remaining",
    "Measured": 100
  }
]

Then this compound:
Would you kindly share the measured QMP remaining for CN1/C(=C/C=C/C=C/C2=[N+](CCCCCC(=O)NCCCCCCNC(=O)C(F)c3ccccc3OP(=O)(O)O)c3ccccc3C2(C)C)C(C)(C)c2ccccc21.[Cl-] (centres unmarked) ? 95.6

###

Procedure summary: Accelerated stability study in Buffer A (50/50 DMSO and 10 mM glycine buffer pH 2.0)
Format: physicochemical
Stated conditions: 20-25 °C, 36.0 days
Readout: QMP remaining (%)
API: value field is a number in %; no unit string.

[
  {
    "Compound": "CN(C)c1ccc(N=Nc2ccc(S(=O)(=O)NCCOCCOCCOCCOCCOCCOCCOCCOCCC(=O)NCCCCCCNC(=O)C(F)c3ccccc3OP(=O)(O)O)cc2)cc1 (centres unmarked)",
    "Value units": "%",
    "Measured": 96.7
  }
]

Please turn your attention to the following entry.
Consider the compound shown here: CN1/C(=C/C=C/C=C/C2=[N+](CCCCCC(=O)NCCCCCCNC(=O)C(F)c3ccccc3OP(=O)(O)O)c3ccccc3C2(C)C)C(C)(C)c2ccccc21.[Cl-] (centres unmarked) What is its recorded QMP remaining? 94

###

Procedure summary: Accelerated stability study in Buffer A (50/50 DMSO and 10 mM glycine buffer pH 2.0)
Type: physicochemical
Stated conditions: 20-25 °C, 10.0 days
Readout: QMP remaining (%)
Give the value in % but do not write % after it.

[
  {
    "Compound": "CN1/C(=C/C=C/C=C/C2=[N+](CCCCCC(=O)NCCCCCCNC(=O)C(F)c3ccccc3OP(=O)(O)O)c3ccccc3C2(C)C)C(C)(C)c2ccccc21.[Cl-] (centres unmarked) [28(D)]",
    "QMP remaining, %": 95.7
  }
]

# input compound: CN(C)c1ccc(N=Nc2ccc(S(=O)(=O)NCCOCCOCCOCCOCCOCCOCCOCCOCCC(=O)NCCCCCCNC(=O)C(F)c3ccccc3OP(=O)(O)O)cc2)cc1 (centres unmarked) [28(C)] ; wanted: its QMP remaining 100

###

In this section, each of the molecules is paired with its reported QMP remaining.
Procedure summary: Accelerated stability study in Buffer A (50/50 DMSO and 10 mM glycine buffer pH 2.0)
Assay type: physicochemical
Stated conditions: 20-25 °C, 1.0 days
All answers are understood in %, so give the number only.

[
  {
    "Molecule": "CN1/C(=C/C=C/C=C/C2=[N+](CCCCCC(=O)NCCCCCCNC(=O)C(F)c3ccccc3OP(=O)(O)O)c3ccccc3C2(C)C)C(C)(C)c2ccccc21.[Cl-] (centres unmarked) [28(D)]",
    "QMP remaining [%]": 99.8
  }
]

Next molecule, please.
Reported QMP remaining for CN(C)c1ccc(N=Nc2ccc(S(=O)(=O)NCCOCCOCCOCCOCCOCCOCCOCCOCCC(=O)NCCCCCCNC(=O)C(F)c3ccccc3OP(=O)(O)O)cc2)cc1 (centres unmarked) [28(C)] : what is it? 100

###

Procedure summary: Accelerated stability study in Buffer A (50/50 DMSO and 10 mM glycine buffer pH 2.0)
Assay type: physicochemical
Stated conditions: 20-25 °C, 4.0 days
Recorded measurements of QMP remaining, one per entry
// units = %; emit number, no label

[
  {
    "Molecule": "CN(C)c1ccc(N=Nc2ccc(S(=O)(=O)NCCOCCOCCOCCOCCOCCOCCOCCOCCC(=O)NCCCCCCNC(=O)C(F)c3ccccc3OP(=O)(O)O)cc2)cc1 (centres unmarked)",
    "Value units": "%",
    "Measured": 100
  }
]

Below: the item to evaluate.
Requested field: QMP remaining. Item: CN1/C(=C/C=C/C=C/C2=[N+](CCCCCC(=O)NCCCCCCNC(=O)C(F)c3ccccc3OP(=O)(O)O)c3ccccc3C2(C)C)C(C)(C)c2ccccc21.[Cl-] (centres unmarked) 95.4

###

Procedure summary: Accelerated stability study in Buffer A (50/50 DMSO and 10 mM glycine buffer pH 2.0)
Assay type: physicochemical
Stated conditions: 20-25 °C, 25.0 days
Readout: QMP remaining
Number first, unit second: that is the form wanted.

[
  {
    "Compound": "CN1/C(=C/C=C/C=C/C2=[N+](CCCCCC(=O)NCCCCCCNC(=O)C(F)c3ccccc3OP(=O)(O)O)c3ccccc3C2(C)C)C(C)(C)c2ccccc21.[Cl-] (centres unmarked) [28(D)]",
    "QMP remaining": "95.5%"
  }
]

Let us move to another entry and its QMP remaining.
Which QMP remaining reading was recorded for the compound CN(C)c1ccc(N=Nc2ccc(S(=O)(=O)NCCOCCOCCOCCOCCOCCOCCOCCOCCC(=O)NCCCCCCNC(=O)C(F)c3ccccc3OP(=O)(O)O)cc2)cc1 (centres unmarked) [28(C)] ? 97.8%
